Reported EC50 is given for each of the following compounds.
# System: Human alphaherpesvirus 1
# ASSAY_EXPLANATION: Antiviral activity against HSV-1 infected in African green monkey Vero cells assessed as inhibition of viral replication incubated for 3 days by MTT assay
# Assay type: functional, organism-based
# SETUP_CONDITIONS: Human alphaherpesvirus 1, Vero, 72 h
ASSAY_ENDPOINT: EC50

{"COMPOUND": "COc1c(-c2ccc(O)c(O)c2)cc(O)c2c1oc1cc(O)c(O)cc12 [6'-DESMETHYLCANDIDUSIN B]", "ASSAY_ENDPOINT": "EC50", "RECORDED_RESULT": "4.1 µM"}
{"COMPOUND": "COC(=O)c1cc(O)cc(OC)c1C(=O)c1c(O)cc(C)cc1O [SULOCHRIN]", "ASSAY_ENDPOINT": "EC50", "RECORDED_RESULT": "> 20 µM"}
{"COMPOUND": "COc1c(-c2ccc(O)cc2)cc2oc3cc(O)c(O)cc3c2c1O", "ASSAY_ENDPOINT": "EC50", "RECORDED_RESULT": "2.2 µM"}
{"COMPOUND": "COc1c(-c2ccc(O)c(O)c2)cc2oc3cc(O)c(O)cc3c2c1O", "ASSAY_ENDPOINT": "EC50", "RECORDED_RESULT": "4.3 µM"}
